- assayedTarget: Phosphatidylinositol 4,5-bisphosphate 3-kinase catalytic subunit gamma isoform (Homo sapiens)
- Sequence (P48736 whole entry, canonical isoform): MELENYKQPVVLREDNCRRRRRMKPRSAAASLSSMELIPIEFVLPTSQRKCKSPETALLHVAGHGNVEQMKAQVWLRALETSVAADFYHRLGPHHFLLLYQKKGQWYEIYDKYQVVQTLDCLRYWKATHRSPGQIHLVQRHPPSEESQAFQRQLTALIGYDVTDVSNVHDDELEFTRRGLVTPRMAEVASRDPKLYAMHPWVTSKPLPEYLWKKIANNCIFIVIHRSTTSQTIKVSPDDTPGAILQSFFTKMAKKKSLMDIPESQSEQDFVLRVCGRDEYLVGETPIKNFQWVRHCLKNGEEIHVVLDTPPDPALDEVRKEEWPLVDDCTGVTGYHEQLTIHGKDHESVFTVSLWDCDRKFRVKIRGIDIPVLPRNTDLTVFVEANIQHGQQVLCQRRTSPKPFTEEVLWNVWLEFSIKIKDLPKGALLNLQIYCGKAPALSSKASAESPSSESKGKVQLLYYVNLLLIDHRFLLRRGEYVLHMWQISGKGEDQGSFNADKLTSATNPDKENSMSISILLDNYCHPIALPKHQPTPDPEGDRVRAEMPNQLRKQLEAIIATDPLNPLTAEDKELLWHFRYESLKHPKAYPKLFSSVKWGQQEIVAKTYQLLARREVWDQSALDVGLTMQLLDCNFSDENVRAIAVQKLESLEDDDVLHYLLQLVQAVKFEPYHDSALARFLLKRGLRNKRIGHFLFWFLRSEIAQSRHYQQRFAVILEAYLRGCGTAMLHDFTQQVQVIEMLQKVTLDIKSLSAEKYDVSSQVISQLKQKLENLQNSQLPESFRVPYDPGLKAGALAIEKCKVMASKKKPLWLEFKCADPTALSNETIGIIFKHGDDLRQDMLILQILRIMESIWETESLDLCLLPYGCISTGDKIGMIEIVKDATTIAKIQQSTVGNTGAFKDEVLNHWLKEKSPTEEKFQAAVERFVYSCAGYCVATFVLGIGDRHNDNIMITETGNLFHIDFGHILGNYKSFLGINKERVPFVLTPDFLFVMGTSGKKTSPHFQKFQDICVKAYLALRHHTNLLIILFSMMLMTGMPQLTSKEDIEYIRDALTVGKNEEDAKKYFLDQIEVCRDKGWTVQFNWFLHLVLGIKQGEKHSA
- assayDetails: Inhibition of PI3K gamma (unknown origin)
pIC50: −log10 of the molar value.
quantityName: pIC50

structure=COc1ccc(-c2cc(C(=O)N/N=C(\C=C\c3ccc(Cl)cc3)c3ccc(N)cc3)c3ccccc3n2)cc1 quantityname=pIC50 observedresult=7.28
structure=Cc1ccc(-c2cc(C(=O)N/N=C(\C=C\c3ccc(Cl)cc3)c3ccc(N)cc3)c3ccccc3n2)cc1 quantityname=pIC50 observedresult=6.71

---

- assayedTarget: Tyrosine-protein kinase receptor UFO (Homo sapiens, UniProt P30530)
- Sequence (P30530 whole entry): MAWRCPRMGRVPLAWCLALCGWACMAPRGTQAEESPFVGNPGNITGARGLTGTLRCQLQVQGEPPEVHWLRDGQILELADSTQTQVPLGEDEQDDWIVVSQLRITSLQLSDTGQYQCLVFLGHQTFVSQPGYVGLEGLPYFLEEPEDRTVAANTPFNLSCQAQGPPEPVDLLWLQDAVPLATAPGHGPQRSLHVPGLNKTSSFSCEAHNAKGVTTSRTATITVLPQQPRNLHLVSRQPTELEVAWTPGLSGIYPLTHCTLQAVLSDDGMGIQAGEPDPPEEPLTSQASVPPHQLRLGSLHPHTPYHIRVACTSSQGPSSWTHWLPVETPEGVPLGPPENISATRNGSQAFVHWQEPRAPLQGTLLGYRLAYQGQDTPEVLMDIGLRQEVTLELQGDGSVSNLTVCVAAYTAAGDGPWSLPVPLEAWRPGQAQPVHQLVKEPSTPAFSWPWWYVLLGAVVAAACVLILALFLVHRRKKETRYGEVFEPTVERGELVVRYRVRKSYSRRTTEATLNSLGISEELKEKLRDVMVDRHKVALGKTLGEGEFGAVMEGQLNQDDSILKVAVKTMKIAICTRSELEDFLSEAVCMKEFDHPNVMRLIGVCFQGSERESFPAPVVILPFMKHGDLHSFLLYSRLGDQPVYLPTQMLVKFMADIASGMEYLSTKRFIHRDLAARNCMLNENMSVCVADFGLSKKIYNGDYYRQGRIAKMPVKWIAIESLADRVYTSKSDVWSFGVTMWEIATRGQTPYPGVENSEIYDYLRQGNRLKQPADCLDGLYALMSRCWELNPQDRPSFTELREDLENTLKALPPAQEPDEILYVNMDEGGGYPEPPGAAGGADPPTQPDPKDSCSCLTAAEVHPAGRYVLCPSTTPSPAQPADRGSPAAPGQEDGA
pIC50: −log10 of the molar value.
Form field: pIC50 (one value per entry).
quantityName: pIC50

molecule="COc1cc2c(Oc3ccc(NS(=O)(=O)c4cc(F)ccc4F)cc3F)ccnc2cc1OCCCN1CCCC(C)C1 (configuration not stated)" observedresult=7.68
molecule=COc1cc2c(Oc3ccc(NS(=O)(=O)c4ccccc4OC(F)(F)F)cc3F)ccnc2cc1OCCCN1CCN(C)CC1 observedresult=7.57

---

- Tested on: A-375
- assayDetails: Antiproliferative activity against human A-375 cells
- Assay type: functional, cell-based
pIC50: −log10 of the molar value.
Here the recorded pIC50 is given for each entry.
quantityName: pIC50

structure=CSc1nc2ccccc2cc1/C=C1/C=C(c2ccccc2)NC1=O assayedtarget=A-375 observedresult=5.72
structure=COc1nc2ccc(C)cc2cc1Cc1cc(-c2ccccc2)n[nH]c1=O assayedtarget=A-375 observedresult=5.66
structure=COc1ccc(/C=C\c2cc(OC)c(OC)c(OC)c2)cc1O assayedtarget=A-375 observedresult=6.74
structure=COc1nc2ccccc2cc1/C=C1/C=C(c2ccccc2)NC1=O assayedtarget=A-375 observedresult=5.72

---

- System: Hemozoin
- assayDetails: Inhibition of beta-hematin formation
quantityName: IC50 (µM)

compound="CCN(CC)CCCC(C)Nc1ccnc2cc(Cl)ccc12 (configuration not stated)" observedresult=890
compound="C[C@@H]1CCC2[C@@H](C)[C@H](OC(=O)CCC(=O)OCCNc3ccnc4cc(Cl)ccc34)O[C@@H]3O[C@@]4(C)CC[C@@H]1[C@@]23OO4 (some centres not stated)" observedresult=560

---

- System: KG-1a
- assayDetails: Antiproliferative activity against human KG-1a cells
- Type: functional, cell-based
quantityName: IC50 (nM)

structure=Cc1ccc(Nc2nnc(-c3cc(-c4ccc(Br)cc4)nc4ccccc34)o2)cc1 quantityname=IC50 observedresult=1210
structure=COc1ccc2nc(-c3ccc(Br)cc3)cc(-c3nnc(Nc4ccc([N+](=O)[O-])cc4)o3)c2c1 quantityname=IC50 observedresult=1210

---

- Test system: HCT-116
- assayDetails: Cytotoxicity against human HCT-116 cells
- Type: functional, cell-based
quantityName: IC50 (µg/mL)

compound="CCOC(=O)C(C#N)C(=O)c1cc(/C=C/c2ccc(N(C)C)cc2)nc2ccc(Br)cc12 (stereo not drawn)" assayedtarget=HCT-116 observedresult=7.7
compound=Cc1ccc2nc(/C=C/c3ccc(N(C)C)cc3)cc(-c3nnc(N)s3)c2c1 assayedtarget=HCT-116 observedresult=7.7
compound=CN(C)C/C=C/C(=O)Nc1cc2c(Nc3ccc(F)c(Cl)c3)ncnc2cc1O[C@H]1CCOC1 assayedtarget=HCT-116 observedresult=5.3
compound=Cc1ccc2nc(/C=C/c3ccc(N(C)C)cc3)cc(C(=O)O)c2c1 assayedtarget=HCT-116 observedresult=7.7
compound=O=c1[nH]cc(F)c(=O)[nH]1 assayedtarget=HCT-116 observedresult=5.3
compound=CN(C)c1ccc(/C=C/c2cc(C(=O)O)c3cc(Br)ccc3n2)cc1 assayedtarget=HCT-116 observedresult=7.7

---

- Tested on: MCF7
- assayDetails: Antiproliferative activity against human MCF7 cells
- Assay type: functional, cell-based
- conditionDetails: Homo sapiens, MCF7
pIC50: −log10 of the molar value.
Give Met when the value for pIC50 is at least 6. Give Not met when it is less.

molecule=COc1ccc2ccc(F)c(CC(=O)N/N=C/c3cc(OC)c(OC)c(OC)c3)c2n1 classassignment="Not met"
molecule=COc1ccc2ccc(F)c(CC(=O)N/N=C/c3ccc(C(F)(F)F)cc3)c2n1 classassignment="Not met"
molecule=COc1ccc2ccc(F)c(CC(=O)N/N=C/c3cccc(C(F)(F)F)c3)c2n1 classassignment="Not met"
molecule="COc1ccc2nc(Cl)c(C3CC(c4ccc(C)cc4)=NN3c3nc(-c4ccc(Cl)cc4)cs3)cc2c1 (stereo unspecified)" classassignment=Met
molecule="COc1ccc2nc(Cl)c(C3CC(c4ccc(C)cc4)=NN3c3nc(-c4ccc(C)cc4)cs3)cc2c1 (stereo unspecified)" classassignment=Met
molecule=COc1ccc2nc(O)c(/C=C/C(=O)c3ccc(C)cc3)cc2c1 classassignment=Met
molecule=COc1ccc(/C=C/c2cc(Nc3cc(OC)c(OC)c(OC)c3)c3c(OC)c(OC)c(OC)cc3n2)cc1OC classassignment=Met
molecule="CNC(=O)c1sc(N2N=C(c3ccc(C)cc3)CC2c2cc3cc(OC)ccc3nc2Cl)nc1C (stereo unspecified)" classassignment=Met
molecule="COc1ccc2nc(Cl)c(C3CC(c4ccc(C)cc4)=NN3c3nc(C)c(/N=N/c4ccccc4)s3)cc2c1 (stereo unspecified)" classassignment=Met
molecule="CCONC(=O)c1sc(N2N=C(c3ccc(C)cc3)CC2c2cc3cc(OC)ccc3nc2Cl)nc1C (stereo unspecified)" classassignment=Met

---

- assayedTarget: Tubulin
- assayDetails: Inhibition of tubulin polymerization (unknown origin)
pIC50: −log10 of the molar value.
quantityName: pIC50

structure=COc1cc(N(CCSC(=S)N2CCN(CCO)CC2)S(=O)(=O)c2cccc3cccnc23)cc(OC)c1OC quantityname=pIC50 observedresult=5.40
structure=COc1cc(N(CCCSC(=S)N2CCN(C(C)=O)CC2)S(=O)(=O)c2cccc3cccnc23)cc(OC)c1OC quantityname=pIC50 observedresult=5.54

---

- assayDetails: Cytotoxicity against human L02 cells
- Format: toxicity, cell-based
quantityName: IC50 (µM)

structure=COc1ccc(/C=N/NC(=O)c2ccc(Nc3ccnc4ccccc34)cc2)cc1OC observedresult=16.1

---

Readings of IC50 for the listed compounds
- System: SK-OV-3
- assayDetails: Antiproliferative activity against human SK-OV-3 cells
- Assay type: functional, cell-based
quantityName: IC50

structure=O=c1[nH]cc(F)c(=O)[nH]1 observedresult="26.3 µM"
structure=Cc1cc2nc(-c3cc4ccccc4nc3Cl)[nH]c2cc1C observedresult="7.54 µM"

---

- Tested on: NCI-H460
- assayDetails: Antiproliferative activity against human NCI-H460 cells
- Assay type: functional, cell-based
Recorded measurements of log10 IC50, one per entry
quantityName: log10 IC50 (log10 of the value in nM)

structure=COc1ccc(/C=C\c2cc(OC)c(OC)c(OC)c2)cc1O observedresult=2.26
structure=COc1nc2ccccc2cc1/C=C1/C=C(c2ccccc2)NC1=O observedresult=3.28
structure=COc1nc2ccc(C)cc2cc1Cc1cc(-c2ccccc2)n[nH]c1=O observedresult=3.34
structure=CSc1nc2ccccc2cc1/C=C1/C=C(c2ccccc2)NC1=O observedresult=3.28
structure=O=c1[nH]cc(F)c(=O)[nH]1 observedresult=4.42
structure=Cc1cc2nc(-c3cc4ccccc4nc3Cl)[nH]c2cc1C observedresult=3.88

Data provenance: ChEMBL document CHEMBL5230155
